The measured values listed here are drawn from patent US10669242B2.

# TARGET_OF_ASSAY: recombinant glucosyltransferase domain of C. difficile Toxin B/TcdB (Clostridioides difficile, UniProt P18177)
# Construct: 6-His (C); purchased R&D Systems 6246-GT
# Sequence (P18177 1-543): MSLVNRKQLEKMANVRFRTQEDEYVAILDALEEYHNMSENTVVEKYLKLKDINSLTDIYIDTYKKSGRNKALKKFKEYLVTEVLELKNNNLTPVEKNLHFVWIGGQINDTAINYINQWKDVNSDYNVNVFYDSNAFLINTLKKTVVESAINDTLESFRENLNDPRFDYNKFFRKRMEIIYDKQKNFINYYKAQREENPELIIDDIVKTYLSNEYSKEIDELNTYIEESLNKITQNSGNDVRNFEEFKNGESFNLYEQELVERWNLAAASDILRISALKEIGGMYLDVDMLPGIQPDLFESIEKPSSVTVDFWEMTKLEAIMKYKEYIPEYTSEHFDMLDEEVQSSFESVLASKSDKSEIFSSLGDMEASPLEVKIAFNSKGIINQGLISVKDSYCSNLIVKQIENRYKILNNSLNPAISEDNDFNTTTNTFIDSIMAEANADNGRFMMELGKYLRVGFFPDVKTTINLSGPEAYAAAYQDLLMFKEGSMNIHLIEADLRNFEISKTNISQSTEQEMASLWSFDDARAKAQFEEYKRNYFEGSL
# ASSAY_NOTES: biochemical
pIC50: −log10 of the molar value.
OBSERVATION_TYPE: pIC50

Some compounds with recorded pIC50:
1) CC(=O)Nc1ccc(-c2cc(CN3C(=O)c4ccc(Cl)cc4NC(=O)[C@H]3Cc3ccccn3)ccc2C(=O)O)cc1    6.00 to 7.00
2) COc1ccc(NC(=O)c2ccc(CN3C(=O)c4ccc(Cl)cc4NC(=O)[C@H]3Cc3ccccn3)cc2)nc1    > 7.00
3) Cc1cnc(NC(=O)c2ccc(CN3C(=O)c4ccc(Cl)cc4NC(=O)[C@H]3Cc3ccccn3)cc2)nc1    > 7.00
4) Cc1ccc2c(c1)NC(=O)[C@@H](Cc1ccc(Cl)c(Cl)c1)N(Cc1ccc(C(=O)O)cc1)C2=O    4.46 to 5.00
5) O=C(O)c1ccc(CN2C(=O)c3ccc(Cl)cc3NC(=O)[C@H]2Cc2ccc(F)cc2)cc1    5.00 to 6.00

[Q] Any idea what its pIC50 is? The compound is Cn1cnc(C(=O)[C@H]2CC[C@H](CN3C(=O)c4ccc(Cl)cc4NC(=O)[C@H]3Cc3ccccn3)CC2)c1 [Example 33d]
[A] 6.00 to 7.00

====

# TARGET_OF_ASSAY: recombinant glucosyltransferase domain of C. difficile Toxin B/TcdB (Clostridioides difficile)
# Construct: 6-His (C); purchased R&D Systems 6246-GT
# ASSAY_NOTES: biochemical
pIC50: −log10 of the molar value.
OBSERVATION_TYPE: pIC50

1) O=C(O)c1ccc(CN2C(=O)c3ccc(Cl)cc3NC(=O)[C@H]2Cc2cccc(Cl)c2)cc1 [Example 3f]    5.00 to 6.00
2) O=C(Nc1ccccn1)c1ccc(CN2C(=O)c3ccc(Cl)cc3NC(=O)[C@H]2Cc2ccccn2)cc1 [Example 4v]    > 7.00

[Q] Quick check: pIC50 of COc1ccc(NC(=O)c2ccc(CN3C(=O)c4ccc(Cl)cc4NC(=O)[C@H]3Cc3ccccn3)cc2)nn1 [Example 4bm] ?
[A] > 7.00

[Q] I would be grateful if you could share the reported pIC50 for Cc1cccc(NC(=O)c2ccc(CN3C(=O)c4ccc(Cl)cc4NC(=O)[C@H]3Cc3cccnc3)cc2)n1 [Example 4o] .
[A] 4.46 to 5.00

[Q] Name the reported pIC50 value associated with the compound COCC(=O)Nc1ccc(CN2C(=O)c3ccc(Cl)cc3NC(=O)[C@H]2Cc2ccccn2)cc1 [Example 30b]
[A] 4.46 to 5.00

[Q] Which pIC50 reading was recorded for the compound O=C(Nc1ccc(CN2C(=O)c3ccc(Cl)cc3NC(=O)[C@H]2Cc2ccccn2)cc1)c1ccncn1 [Example 27c] ?
[A] 6.00 to 7.00

[Q] I am curious: what pIC50 value has been reported for Cc1cccnc1C(=O)Nc1ccc(CN2C(=O)c3ccc(Cl)cc3NC(=O)[C@H]2Cc2ccccn2)cc1 [Example 26e] ?
[A] 5.00 to 6.00

====

# TARGET_OF_ASSAY: recombinant glucosyltransferase domain of C. difficile Toxin B/TcdB (Clostridioides difficile, UniProt P18177)
# Construct: 6-His (C); purchased R&D Systems 6246-GT
# ASSAY_NOTES: biochemical
pIC50: −log10 of the molar value.
Listed below: pIC50 values for each entry.

Worked cases, answers included:
1) O=C(O)c1ccc(CN2C(=O)c3ccc(Cl)cc3NC(=O)[C@H]2Cc2ccccn2)cc1-c1cccc(F)c1    6.00 to 7.00
2) CS(=O)(=O)Nc1ccc(CN2C(=O)c3ccc(Cl)cc3NC(=O)[C@H]2Cc2ccccn2)cc1 [Example 30a]    4.46 to 5.00
3) O=C(c1ccc(CN2C(=O)c3ccc(Cl)cc3NC(=O)[C@H]2Cc2ccccn2)cc1)c1ccccn1 [Example 11a]    > 7.00

Here's the next entry for you.
[Q] Looking for the measured pIC50 of O=C(Nc1ccccn1)c1ccc(CN2C(=O)c3ccc(Cl)cc3NC(=O)[C@@H]2Cc2cccnc2)cc1 [Example 35m] , can you help?
[A] 6.00 to 7.00

====

# TARGET_OF_ASSAY: C. difficile full-length toxin TcdA (Clostridioides difficile)
# Construct: C. difficile full-length toxins (TcdA or TcdB)
# Sequence (P16154 whole entry, looked up): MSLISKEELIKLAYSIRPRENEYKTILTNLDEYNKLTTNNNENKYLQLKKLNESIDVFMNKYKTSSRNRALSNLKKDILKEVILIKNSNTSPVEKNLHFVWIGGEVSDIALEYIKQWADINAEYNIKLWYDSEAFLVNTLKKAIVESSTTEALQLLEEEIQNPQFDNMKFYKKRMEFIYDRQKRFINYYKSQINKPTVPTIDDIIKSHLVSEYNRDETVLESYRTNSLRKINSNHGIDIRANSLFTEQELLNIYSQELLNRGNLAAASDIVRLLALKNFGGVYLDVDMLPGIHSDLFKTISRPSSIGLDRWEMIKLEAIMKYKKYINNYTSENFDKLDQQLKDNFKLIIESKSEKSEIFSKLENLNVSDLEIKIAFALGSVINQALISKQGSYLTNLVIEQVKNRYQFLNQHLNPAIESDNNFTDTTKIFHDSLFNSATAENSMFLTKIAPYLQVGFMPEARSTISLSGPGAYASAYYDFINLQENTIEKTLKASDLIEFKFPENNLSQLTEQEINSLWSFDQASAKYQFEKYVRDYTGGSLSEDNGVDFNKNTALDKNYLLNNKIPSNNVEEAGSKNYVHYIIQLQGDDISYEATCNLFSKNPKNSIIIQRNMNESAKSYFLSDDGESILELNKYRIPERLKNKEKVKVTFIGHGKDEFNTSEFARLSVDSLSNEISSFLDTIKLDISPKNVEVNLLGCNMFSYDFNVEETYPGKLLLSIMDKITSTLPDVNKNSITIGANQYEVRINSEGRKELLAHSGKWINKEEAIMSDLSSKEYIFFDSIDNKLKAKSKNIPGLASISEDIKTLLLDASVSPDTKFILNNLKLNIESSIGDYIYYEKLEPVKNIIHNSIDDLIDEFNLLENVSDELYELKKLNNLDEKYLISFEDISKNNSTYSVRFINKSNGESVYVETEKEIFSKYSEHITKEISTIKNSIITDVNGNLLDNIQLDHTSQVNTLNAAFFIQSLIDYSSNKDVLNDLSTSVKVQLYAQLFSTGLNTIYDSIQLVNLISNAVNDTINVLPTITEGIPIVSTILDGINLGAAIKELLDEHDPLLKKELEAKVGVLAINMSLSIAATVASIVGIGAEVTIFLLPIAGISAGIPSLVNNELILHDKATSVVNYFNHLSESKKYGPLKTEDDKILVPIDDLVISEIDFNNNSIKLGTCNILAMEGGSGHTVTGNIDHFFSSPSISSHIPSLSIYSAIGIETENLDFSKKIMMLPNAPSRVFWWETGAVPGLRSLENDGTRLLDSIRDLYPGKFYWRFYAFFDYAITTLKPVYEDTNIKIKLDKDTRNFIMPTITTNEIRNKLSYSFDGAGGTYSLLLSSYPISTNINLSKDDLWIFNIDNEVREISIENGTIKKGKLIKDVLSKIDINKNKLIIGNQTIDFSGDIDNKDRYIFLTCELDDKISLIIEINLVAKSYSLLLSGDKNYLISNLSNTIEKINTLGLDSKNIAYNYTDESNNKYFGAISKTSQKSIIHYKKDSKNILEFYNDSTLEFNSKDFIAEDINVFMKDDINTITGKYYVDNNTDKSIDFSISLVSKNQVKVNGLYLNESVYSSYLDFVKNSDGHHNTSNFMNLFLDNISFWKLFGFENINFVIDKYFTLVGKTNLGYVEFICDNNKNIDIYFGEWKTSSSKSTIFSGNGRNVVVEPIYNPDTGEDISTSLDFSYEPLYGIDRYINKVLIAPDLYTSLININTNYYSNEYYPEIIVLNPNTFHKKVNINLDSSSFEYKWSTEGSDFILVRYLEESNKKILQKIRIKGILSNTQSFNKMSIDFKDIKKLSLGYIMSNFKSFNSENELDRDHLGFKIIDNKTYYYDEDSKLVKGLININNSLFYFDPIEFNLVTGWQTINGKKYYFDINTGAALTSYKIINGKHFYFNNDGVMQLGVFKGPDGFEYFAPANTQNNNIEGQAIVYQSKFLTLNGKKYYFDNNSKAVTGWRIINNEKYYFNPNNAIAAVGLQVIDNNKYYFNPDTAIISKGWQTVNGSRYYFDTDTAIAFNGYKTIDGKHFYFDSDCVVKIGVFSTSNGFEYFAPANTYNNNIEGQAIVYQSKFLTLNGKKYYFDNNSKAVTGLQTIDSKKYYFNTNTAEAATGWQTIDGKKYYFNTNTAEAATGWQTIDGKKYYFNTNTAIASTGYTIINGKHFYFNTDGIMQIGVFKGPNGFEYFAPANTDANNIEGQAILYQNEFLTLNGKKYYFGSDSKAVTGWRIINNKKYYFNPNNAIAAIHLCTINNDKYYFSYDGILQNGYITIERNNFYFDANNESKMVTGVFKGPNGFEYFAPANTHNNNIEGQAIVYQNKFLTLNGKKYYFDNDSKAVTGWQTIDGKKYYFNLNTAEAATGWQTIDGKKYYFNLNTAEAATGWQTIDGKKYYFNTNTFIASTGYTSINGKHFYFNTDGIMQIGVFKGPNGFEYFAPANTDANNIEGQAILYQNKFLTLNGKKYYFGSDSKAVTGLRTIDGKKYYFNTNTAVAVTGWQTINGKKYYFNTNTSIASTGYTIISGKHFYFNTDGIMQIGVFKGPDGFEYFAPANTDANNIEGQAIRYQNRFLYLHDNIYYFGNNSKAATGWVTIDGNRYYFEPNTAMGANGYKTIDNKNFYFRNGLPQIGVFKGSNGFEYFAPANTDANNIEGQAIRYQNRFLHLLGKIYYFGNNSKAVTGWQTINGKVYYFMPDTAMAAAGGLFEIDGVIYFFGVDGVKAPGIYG
# ASSAY_NOTES: cell-based
OBSERVATION_TYPE: IC50

Check out these entries, answers already filled in.
1. O=C(c1ccc(CN2C(=O)c3ccc(Cl)cc3NC(=O)[C@H]2Cc2ccccn2)cc1)c1cccn2ccnc12 [Example 34a]    > 10000 nM
2. COc1ccc(NC(=O)c2ccc(CN3C(=O)c4ccc(Cl)cc4NC(=O)[C@H]3Cc3ccccn3)cc2F)nc1 [Example 6a]    100 to 999 nM
3. COc1cnc(NC(=O)c2ccc(CN3C(=O)c4ccc(Cl)cc4NC(=O)[C@H]3Cc3ccccn3)cc2C)nc1 [Example 5ai]    100 to 999 nM

[Q] Returns the measured IC50 for the input compound. Input: O=C(Nc1ccc(C(F)(F)F)cn1)c1ccc(CN2C(=O)c3ccc(Cl)cc3NC(=O)[C@H]2Cc2ccccn2)cc1Cl [Example 5ae]
[A] 1000 to 10000 nM

[Q] Entry under review: O=C(c1ccc(CN2C(=O)c3ccc(Cl)cc3NC(=O)[C@H]2Cc2ccccn2)cc1)c1ccccn1 [Example 11a] . Reported IC50?
[A] > 10000 nM

[Q] Would you kindly share the measured IC50 for COc1cc(CN2C(=O)c3ccc(Cl)cc3NC(=O)[C@H]2Cc2ccccn2)ccc1C(=O)Nc1ccc(C(F)(F)F)cn1 [Example 4au] ?
[A] > 10000 nM

[Q] Entry under review: COc1ccc(NC(=O)c2ccc(CN3C(=O)c4ccc(Cl)cc4NC(=O)[C@H]3Cc3ccccn3)cc2C)nc1 [Example 4cl] . Reported IC50?
[A] 100 to 999 nM

[Q] Returns the measured IC50 for the input compound. Input: Cc1ccc(NC(=O)c2ccc(CN3C(=O)c4ccc(Cl)cc4NC(=O)[C@H]3Cc3ccccn3)cc2C)nc1 [Example 4ck]
[A] 100 to 999 nM

[Q] I am curious: what IC50 value has been reported for COc1cc(CN2C(=O)c3ccc(Cl)cc3NC(=O)[C@H]2Cc2ccccn2)ccc1C(=O)Nc1ncc(C)cn1 [Example 5am] ?
[A] 1000 to 10000 nM

====

Some molecules, each annotated with its measured IC50.
# TARGET_OF_ASSAY: recombinant glucosyltransferase domain of C. difficile Toxin B/TcdB (Clostridioides difficile)
# Construct: 6-His (C); purchased R&D Systems 6246-GT
# ASSAY_NOTES: biochemical

Study these solved cases before continuing.
1) COc1cnc(NC(=O)c2ccc(CN3C(=O)c4ccc(Cl)cc4NC(=O)[C@H]3Cc3ccccn3)cc2)nc1    < 100 nM
2) Cn1cc(C(=O)[C@H]2CC[C@H](CN3C(=O)c4ccc(Cl)cc4NC(=O)[C@H]3Cc3ccccn3)CC2)c2ncccc21 [Example 33b]    < 100 nM
3) O=C(Nc1ccc(C(F)(F)F)cn1)c1ccc(CN2C(=O)c3ccc(Cl)cc3NC(=O)[C@H]2Cc2ccccn2)cc1-c1ccc2c(c1)OCO2    100 to 999 nM
4) C[C@@H]1C(=O)Nc2cc(Cl)ccc2C(=O)N1Cc1ccc(C(=O)Nc2ccc(N3CCN(C)CC3)cn2)cc1    100 to 999 nM

[Q] Which IC50 reading was recorded for the molecule COc1cc(CN2C(=O)c3ccc(Cl)cc3NC(=O)[C@H]2Cc2ccccn2)ccc1C(=O)Nc1ncc(C)cn1 ?
[A] < 100 nM

[Q] Look up IC50: Cc1cnc(NC(=O)c2ccc(S(=O)(=O)N3Cc4ccc(Cl)cc4NC(=O)[C@H]3Cc3ccccn3)cc2)nc1 [Example 19g]
[A] < 100 nM

[Q] // IC50 lookup, key: COc1ccc(COc2cc(CN3C(=O)c4ccc(Cl)cc4NC(=O)[C@H]3C)ccc2C(=O)O)cc1 [Example 38a]
[A] 10000 to 35000 nM

====

# TARGET_OF_ASSAY: recombinant glucosyltransferase domain of C. difficile Toxin B/TcdB (Clostridioides difficile, UniProt P18177)
# Construct: 6-His (C); purchased R&D Systems 6246-GT
# ASSAY_NOTES: biochemical
# IC50 per record follows

Example entries begin here.
1. O=C(O)c1ccc(CN2C(=O)c3ccc(Cl)cc3NC(=O)[C@H]2Cc2ccccn2)cc1-c1ccc(F)c(Cl)c1    100 to 999 nM
2. Cc1ccc(NC(=O)c2ccc(CN3C(=O)c4ccc(Cl)cc4NC(=O)[C@H]3Cc3ccsc3)cc2)nc1 [Example 35b]    < 100 nM
3. O=C(O)c1ccc(CN2C(=O)c3ccc(Cl)cc3NC(=O)[C@H]2Cc2ccc(Cl)c(Cl)c2)cc1    1000 to 10000 nM
4. O=C(Nc1cc(CN2C(=O)c3ccc(Cl)cc3NC(=O)[C@H]2Cc2ccccn2)ccc1C(=O)O)c1ccncc1 [Example 22f]    1000 to 10000 nM

[Q] Which IC50 value belongs to O=C(c1ccc(CN2C(=O)c3ccc(Cl)cc3NC(=O)[C@H]2Cc2ccccn2)cc1)c1c[nH]c2cccnc12 [Example 32a] ?
[A] < 100 nM

[Q] Item O=C(O)c1ccc(CN2C(=O)c3ccc(Cl)cc3NC(=O)[C@H]2Cc2ccc(Cl)cc2)cc1 has what recorded IC50?
[A] 10000 to 35000 nM

[Q] GET /values?readout=IC50&item= Cc1ccnc(C(=O)c2ccc(CN3C(=O)c4ccc(Cl)cc4NC(=O)[C@H]3Cc3ccccn3)cc2)c1 [Example 11d]
[A] < 100 nM

[Q] For the molecule COc1ccc(NC(=O)c2ccc(CN3C(=O)c4ccc(Cl)cc4NC(=O)[C@H]3Cc3ccccn3)cc2Cl)nc1 , what IC50 is on record?
[A] < 100 nM

[Q] Record request: IC50 value, item Cc1ccc(Nc2nn(C)c3cc(CN4C(=O)c5ccc(Cl)cc5NC(=O)[C@H]4Cc4ccccn4)ccc23)nc1 [Example 44a]
[A] 100 to 999 nM

[Q] Quick one: IC50 of COCC(=O)Nc1cc(CN2C(=O)c3ccc(Cl)cc3NC(=O)[C@H]2Cc2ccccn2)ccc1C(=O)O [Example 22b] ?
[A] 100 to 999 nM

[Q] What value of IC50 has been recorded for this entry: O=C(Nc1ccc(CN2C(=O)c3ccc(Cl)cc3NC(=O)[C@H]2Cc2ccccn2)cc1)c1c[nH]cn1 [Example 27j]
[A] < 100 nM
